Target: human Nox4 (Homo sapiens (Human), UniProt Q9NPH5)
Sequence (Q9NPH5 whole entry): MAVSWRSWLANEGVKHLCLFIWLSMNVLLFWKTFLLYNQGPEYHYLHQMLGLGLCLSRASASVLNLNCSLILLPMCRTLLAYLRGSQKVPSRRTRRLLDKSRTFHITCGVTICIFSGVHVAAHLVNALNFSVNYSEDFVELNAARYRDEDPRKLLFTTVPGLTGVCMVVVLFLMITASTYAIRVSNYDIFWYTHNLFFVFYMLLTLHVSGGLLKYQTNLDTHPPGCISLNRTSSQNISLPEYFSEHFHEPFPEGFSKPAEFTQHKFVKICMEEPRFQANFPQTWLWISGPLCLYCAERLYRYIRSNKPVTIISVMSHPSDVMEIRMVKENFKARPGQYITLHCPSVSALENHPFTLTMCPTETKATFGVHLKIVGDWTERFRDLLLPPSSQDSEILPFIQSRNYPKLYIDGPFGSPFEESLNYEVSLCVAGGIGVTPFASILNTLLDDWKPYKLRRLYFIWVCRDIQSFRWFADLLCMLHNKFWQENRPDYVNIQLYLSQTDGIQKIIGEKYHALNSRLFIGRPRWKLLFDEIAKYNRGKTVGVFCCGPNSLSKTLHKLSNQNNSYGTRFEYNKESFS
Sequence (P13498 2-195 partner): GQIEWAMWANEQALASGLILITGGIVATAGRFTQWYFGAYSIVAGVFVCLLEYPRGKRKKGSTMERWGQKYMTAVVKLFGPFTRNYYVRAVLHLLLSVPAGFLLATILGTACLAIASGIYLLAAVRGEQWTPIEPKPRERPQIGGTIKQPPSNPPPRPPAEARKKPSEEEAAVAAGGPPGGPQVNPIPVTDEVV
Test: Nox4 assay using stably transfected HEK cells
Conditions: using two different assays
OUTCOME_MEASURE: IC50

State the recorded IC50 for this entry: COc1ccc(N2CCN(C(=O)c3cc4cc(C(C)=O)ccc4[nH]3)CC2)cc1 [TG6-161]
20 to 30 µM

----------
Target or system xanthine oxidase (Homo sapiens (Human)): recorded IC50 listed per item.

>>> df
                                   compound  outcome_measure  value_reported
0  COc1ccc(N2CCN(C(=O)c3cnc4cc(C(C)=O)ccc4c3O)CC2)cc1 [TG6-239]             IC50         ≥ 20 µM
1  COc1ccc(N2CCN(C(=O)c3nc4cc(OC)ccc4[nH]3)CC2)cc1 [TG6-228]             IC50         > 20 µM
2  CC(C)Oc1ccc(N2CCN(C(=O)c3nc4cc(C(N)=O)ccc4[nH]3)CC2)cc1 [TG6-251-1]             IC50         ≥ 20 µM
3  COc1ccc(N2CCN(C(=O)c3cc4ccccc4[nH]3)CC2)cc1 [TG6-225]             IC50         > 20 µM

What IC50 appears in the records for this compound with xanthine oxidase (Homo sapiens (Human))? COC(=O)c1ccc2[nH]c(C(=O)N3CCN(c4ccc(OC)cc4)CC3)cc2c1 [TG6-222]
Sequence (P47989 whole entry, species assumed): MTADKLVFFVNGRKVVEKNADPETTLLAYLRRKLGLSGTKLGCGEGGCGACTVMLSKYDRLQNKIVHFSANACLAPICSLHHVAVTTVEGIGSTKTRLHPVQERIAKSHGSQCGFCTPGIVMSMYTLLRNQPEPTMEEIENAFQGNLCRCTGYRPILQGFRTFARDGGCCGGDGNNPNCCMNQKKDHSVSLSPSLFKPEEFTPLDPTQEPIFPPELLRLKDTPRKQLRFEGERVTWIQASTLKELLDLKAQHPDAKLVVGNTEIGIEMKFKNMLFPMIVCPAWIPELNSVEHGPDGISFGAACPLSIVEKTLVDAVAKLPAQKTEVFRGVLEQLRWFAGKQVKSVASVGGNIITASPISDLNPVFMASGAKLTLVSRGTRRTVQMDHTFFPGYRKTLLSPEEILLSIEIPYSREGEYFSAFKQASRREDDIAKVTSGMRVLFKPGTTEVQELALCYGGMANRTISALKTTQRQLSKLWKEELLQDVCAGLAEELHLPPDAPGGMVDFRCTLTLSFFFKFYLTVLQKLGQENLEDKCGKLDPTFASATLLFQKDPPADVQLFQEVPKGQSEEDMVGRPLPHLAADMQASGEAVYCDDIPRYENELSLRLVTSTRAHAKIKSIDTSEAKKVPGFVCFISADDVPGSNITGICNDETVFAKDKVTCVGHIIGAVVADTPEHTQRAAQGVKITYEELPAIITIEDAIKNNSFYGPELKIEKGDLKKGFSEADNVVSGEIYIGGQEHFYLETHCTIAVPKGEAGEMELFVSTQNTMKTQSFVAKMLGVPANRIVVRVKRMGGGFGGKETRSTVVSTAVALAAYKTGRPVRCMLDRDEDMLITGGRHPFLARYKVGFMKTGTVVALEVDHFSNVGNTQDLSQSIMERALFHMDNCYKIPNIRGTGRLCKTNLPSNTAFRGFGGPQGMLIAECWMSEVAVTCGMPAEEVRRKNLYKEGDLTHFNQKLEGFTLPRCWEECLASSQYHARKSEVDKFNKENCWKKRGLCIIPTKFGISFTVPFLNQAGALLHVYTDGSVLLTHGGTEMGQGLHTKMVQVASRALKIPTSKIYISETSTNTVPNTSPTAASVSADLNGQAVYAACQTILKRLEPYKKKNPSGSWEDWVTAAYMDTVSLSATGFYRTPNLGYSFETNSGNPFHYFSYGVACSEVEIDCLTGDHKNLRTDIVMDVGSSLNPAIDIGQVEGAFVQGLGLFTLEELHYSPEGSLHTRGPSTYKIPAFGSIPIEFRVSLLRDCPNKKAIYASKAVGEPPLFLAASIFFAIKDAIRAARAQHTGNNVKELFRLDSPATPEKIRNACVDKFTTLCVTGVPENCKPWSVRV
> 20 µM

Query for xanthine oxidase (Homo sapiens (Human)): what IC50 does the record show for CNC(=O)c1ccc2[nH]c(C(=O)N3CCN(c4ccc(OC)cc4)CC3)cc2c1 [TG6-223] ?
> 20 µM

Give the reported IC50 for COc1ccc(N2CCN(C(=O)c3cc4cc(C(N)=O)ccc4[nH]3)CC2)cc1 [TG6-227] (system: xanthine oxidase (Homo sapiens (Human))).
> 20 µM

Value wanted: IC50 (xanthine oxidase (Homo sapiens (Human))) of entry CCOc1ccc(N2CCN(C(=O)c3cc4cc(C(C)=O)ccc4[nH]3)CC2)cc1 [TG6-238]
≥ 20 µM
